test system: HCT116; conditions: 72 h; ICRF193 200 nM
measurementName: IC50 cell viability

Solved entries:
compound	targetOrSystem	result
C[C@@H]1C[C@H]2[C@@H]3CCC4=CC(=O)C=C[C@]4(C)[C@@]3(F)[C@@H](O)C[C@]2(C)[C@@]1(O)C(=O)COC(=O)c1ccncc1 [Dexamethasone isonicotinate]	HCT116	> 45.8 µM
CCCN(CCC)S(=O)(=O)c1ccc(C(=O)O)cc1	HCT116	> 45.8 µM

Now take the following compound into account.
Query: Could you tell me which IC50 cell viability is on file for N=C(N)NCCC[C@@H](NC(=O)[C@@H]1CCCN1C(=O)[C@@H]1CSSCCC(=O)N[C@@H](Cc2ccc(O)cc2)C(=O)N[C@@H](Cc2ccccc2)C(=O)N[C@@H](CCC(N)=O)C(=O)N[C@@H](CC(N)=O)C(=O)N1)C(=O)NCC(N)=O [Desmopressin (Acetate)] ?
Response: > 45.8 µM

* * *

system: HCT116; details: 72 h; ICRF193 200 nM
Structures can show the parent of a compound that is named as a salt.
As shown below, each of these molecules has a reported IC50 cell viability value.

Solved entries:
molecule	IC50 cell viability
C[C@H](O)[C@H](O)[C@H]1CNc2nc(N)[nH]c(=O)c2N1 [(6R)-5,6,7,8-Tetrahydrobiopterin dihydrochloride]	> 45.8 µM
CCN(CC)Cc1cc(Nc2ccnc3cc(Cl)ccc23)ccc1O [Amodiaquin dihydrochloride dihydrate]	18.3 µM
CCOC(=O)[C@H](CCc1ccccc1)N[C@@H](C)C(=O)N1Cc2ccccc2C[C@H]1C(=O)O [Quinapril hydrochloride]	> 45.8 µM

Now take the following molecule into account.
Query: Could you tell me which IC50 cell viability is on file for CCOc1ccc(Cc2nccc3cc(OCC)c(OCC)cc23)cc1OCC [Ethaverine hydrochloride] ?
Response: > 45.8 µM

* * *

tested on: HCT116; experiment: efficacy (maximum % inhibition of viability vs DMSO); higher = more cytotoxic; conditions: 72 h; ICRF193 0 nM
Counter-ions that a name gives are not always drawn.
measurementName: efficacy (%)
The figure you give is taken to be in %; do not add the unit.

compound	measurementName	displayUnit	quantitativeResult
CN(C)/N=N/c1[nH]cnc1C(N)=O	efficacy	%	66.6
C[C@]12CC[C@H](O)C[C@H]1CC[C@@H]1[C@@H]2CC[C@]2(C)[C@@H](c3ccc(=O)oc3)C[C@H]3O[C@]132	efficacy	%	71.3
C#C[C@]1(O)CC[C@H]2[C@@H]3CCC4=CC(=O)CCC4=C3C=C[C@@]21CC	efficacy	%	56.7
CN(C/C=C/c1ccccc1)Cc1cccc2ccccc12 [Naftifine hydrochloride]	efficacy	%	49.9
C[C@@H]1C[C@H]2[C@@H]3C[C@H](F)C4=CC(=O)C=C[C@]4(C)[C@@]3(F)[C@@H](O)C[C@]2(C)[C@@]1(OC(=O)c1ccco1)C(=O)SCF [Fluticasone furoate]	efficacy	%	83.8
CCN(CC)CCOc1ccc(C(=C(Cl)c2ccccc2)c2ccccc2)cc1 [Clomifene citrate]	efficacy	%	110

Now take the following compound into account.
Query: Could you tell me which efficacy is on file for CC[C@]12C=CCN3CC[C@@]4(c5cc([C@@]6(C(=O)OC)C[C@@H]7C[C@@H](C(C)(F)F)CN(Cc8c6[nH]c6ccccc86)C7)c(OC)cc5N(C)[C@H]4[C@@](O)(C(=O)OC)[C@@H]1OC(C)=O)[C@@H]32 [Vinflunine (Tartrate)] ?
Response: 60.1

* * *

As shown below, each of these molecules has a reported IC50 cell viability value.
system: HCT116; settings: 72 h; ICRF193 200 nM
Where a name gives a salt, the structure may show the parent alone.

molecule	IC50 cell viability
CC(CNC1CCCCC1)OC(=O)c1ccccc1 (centres undefined) [Hexylcaine hydrochloride]	> 45.8 µM
NS(=O)(=O)c1cc(C(=O)O)cc(N2CCCC2)c1Oc1ccccc1 [Piretanide]	> 45.8 µM
CCN(CC)CCCC(C)Nc1ccnc2cc(Cl)ccc12 (centres undefined) [Chloroquine]	> 45.8 µM
CN(CCOc1ccc(NS(C)(=O)=O)cc1)CCc1ccc(NS(C)(=O)=O)cc1 [Dofetilide]	> 45.8 µM
CC(C(=O)O)c1ccc2c(c1)[nH]c1ccc(Cl)cc12 (centres undefined) [Carprofen]	> 45.8 µM
C=CCCCCCCCCC(=O)[O-].C=CCCCCCCCCC(=O)[O-].[Ca+2] [Calcium undecylenate]	> 45.8 µM

Query: Could you tell me which IC50 cell viability is on file for Cc1ncc([N+](=O)[O-])n1CC(C)O (centres undefined) [Secnidazole] ?
Response: > 45.8 µM

Query: Could you tell me which IC50 cell viability is on file for CC(C(=O)O)c1ccc(C(=O)c2cccs2)cc1 (centres undefined) [Suprofen] ?
Response: > 45.8 µM

Query: Could you tell me which IC50 cell viability is on file for CCCCCCCCCCCCCCCC(=O)OC/C=C(C)/C=C/C=C(C)/C=C/C1=C(C)CCCC1(C)C [Retinyl palmitate] ?
Response: > 45.8 µM

Query: Could you tell me which IC50 cell viability is on file for Nc1cccc2c1CN(C1CCC(=O)NC1=O)C2=O (centres undefined) [Lenalidomide] ?
Response: > 45.8 µM

Query: Could you tell me which IC50 cell viability is on file for N#Cc1nn(-c2c(Cl)cc(C(F)(F)F)cc2Cl)c(N)c1[S+]([O-])C(F)(F)F (centres undefined) [Fipronil] ?
Response: > 45.8 µM

* * *

test system: HCT116; details: 72 h; ICRF193 0 nM
As shown below, each of these compounds has a reported IC50 cell viability value.

compound	IC50 cell viability
Cn1cnc([N+](=O)[O-])c1Sc1ncnc2[nH]cnc12	2.91 µM

Now take the following compound into account.
Query: Could you tell me which IC50 cell viability is on file for C[n+]1cc2c3c(ccc2c2ccc4cc5c(cc4c21)OCO5)OCO3 ?
Response: 2.83 µM

* * *

As shown below, each of these compounds has a reported IC50 cell viability value.
test system: HCT116; conditions: 72 h; ICRF193 0 nM
Structures can show the parent of a compound that is named as a salt.

Solved entries:
compound	IC50 cell viability
C[n+]1c2cc(N)ccc2cc2ccc(N)cc21.Nc1ccc2cc3ccc(N)cc3nc2c1 [Acriflavine hydrochloride]	16.4 µM
COc1cc2[nH]c(C)c(CCN3CCN(c4ccccc4)CC3)c2cc1OC [Oxypertine hydrochloride]	> 45.8 µM

Query: Request - read-out IC50 cell viability | tested on HCT116 | compound O=c1oc2ccccc2c(O)c1Cc1c(O)c2ccccc2oc1=O [Dicumarol]
Response: > 45.8 µM

Query: Request - read-out IC50 cell viability | tested on HCT116 | compound OC(CCN1CCCC1)(c1ccccc1)C1CCCCC1 (centres undefined) [Procyclidine hydrochloride]
Response: > 45.8 µM

Query: Request - read-out IC50 cell viability | tested on HCT116 | compound Cc1ncc(CO)c(CO)c1O [Vitamin B6]
Response: > 45.8 µM

* * *

tested on: HCT116; assay: efficacy (maximum % inhibition of viability vs DMSO); higher = more cytotoxic; settings: 72 h; ICRF193 200 nM
Counter-ions that a name gives are not always drawn.
measurementName: efficacy (%)
The figure you give is taken to be in %; do not add the unit.

Solved entries:
molecule	quantitativeResult
C[C@]12Cc3nonc3C[C@@H]1CC[C@@H]1[C@@H]2CC[C@@]2(C)[C@H]1CC[C@]2(C)O [Furazabol]	51.4
Nc1nc(Cl)nc2c1ncn2[C@H]1C[C@H](O)[C@@H](CO)O1 [Cladribine]	66.1
CCCCCCCCc1ccc(CCC(N)(CO)CO)cc1 [Fingolimod hydrochloride]	100

Now take the following molecule into account.
Query: Could you tell me which efficacy is on file for COc1ccc2c(c1)N(C[C@H](C)CN(C)C)c1ccccc1S2 [Methotrimeprazine maleat salt] ?
Response: 50.8

* * *

test system: HCT116; assay: efficacy (maximum % inhibition of viability vs DMSO); higher = more cytotoxic; conditions: 72 h; ICRF193 200 nM
Structures can show the parent of a compound that is named as a salt.
measurementName: efficacy (%)
The figure you give is taken to be in %; do not add the unit.

compound	targetOrSystem	efficacy (%)
COC(=O)N[C@H](C(=O)N1CCC[C@H]1c1ncc(-c2ccc(-c3ccc(-c4cnc([C@@H]5CCCN5C(=O)[C@@H](NC(=O)OC)C(C)C)[nH]4)cc3)cc2)[nH]1)C(C)C [Daclatasvir dihydrochloride]	HCT116	101
O=c1[nH]c2ccccc2n1C1CCN(CCCC(c2ccc(F)cc2)c2ccc(F)cc2)CC1 [Pimozide]	HCT116	109
CC(C)C(=O)OCc1cccc(OC(=O)[C@@H]2N3C(=O)[C@@H](NC(=O)Cc4ccccc4)[C@H]3SC2(C)C)c1	HCT116	103
COC(=O)[C@H]1[C@H]2C[C@@H]3c4[nH]c5cc(OC)ccc5c4CCN3C[C@H]2C[C@@H](OC(=O)c2cc(OC)c(OC)c(OC)c2)[C@@H]1OC	HCT116	42.6
O=c1c(-c2ccc(O)cc2)coc2cc(O)cc(O)c12	HCT116	42.9

Query: Could you tell me which efficacy is on file for CN(C)CCCN1c2ccccc2Sc2ccc(Cl)cc21 ?
Response: 93.2

Query: Could you tell me which efficacy is on file for NC(=O)c1cccc2cn(-c3ccc([C@@H]4CCCNC4)cc3)nc12 ?
Response: 114
